Origin of measurements: patent US9586951B2

Kindly state pIC50 for each of the entries shown.
# tested.target: ATM (Homo sapiens)
# Construct: detecting phosphorylation of Chk2 in a human non-small cell lung cancer cell line NCI-H460 (ATCC company); host or cells: NCI-H460 human non-small cell lung cancer cells
# Sequence (Q13315 whole entry): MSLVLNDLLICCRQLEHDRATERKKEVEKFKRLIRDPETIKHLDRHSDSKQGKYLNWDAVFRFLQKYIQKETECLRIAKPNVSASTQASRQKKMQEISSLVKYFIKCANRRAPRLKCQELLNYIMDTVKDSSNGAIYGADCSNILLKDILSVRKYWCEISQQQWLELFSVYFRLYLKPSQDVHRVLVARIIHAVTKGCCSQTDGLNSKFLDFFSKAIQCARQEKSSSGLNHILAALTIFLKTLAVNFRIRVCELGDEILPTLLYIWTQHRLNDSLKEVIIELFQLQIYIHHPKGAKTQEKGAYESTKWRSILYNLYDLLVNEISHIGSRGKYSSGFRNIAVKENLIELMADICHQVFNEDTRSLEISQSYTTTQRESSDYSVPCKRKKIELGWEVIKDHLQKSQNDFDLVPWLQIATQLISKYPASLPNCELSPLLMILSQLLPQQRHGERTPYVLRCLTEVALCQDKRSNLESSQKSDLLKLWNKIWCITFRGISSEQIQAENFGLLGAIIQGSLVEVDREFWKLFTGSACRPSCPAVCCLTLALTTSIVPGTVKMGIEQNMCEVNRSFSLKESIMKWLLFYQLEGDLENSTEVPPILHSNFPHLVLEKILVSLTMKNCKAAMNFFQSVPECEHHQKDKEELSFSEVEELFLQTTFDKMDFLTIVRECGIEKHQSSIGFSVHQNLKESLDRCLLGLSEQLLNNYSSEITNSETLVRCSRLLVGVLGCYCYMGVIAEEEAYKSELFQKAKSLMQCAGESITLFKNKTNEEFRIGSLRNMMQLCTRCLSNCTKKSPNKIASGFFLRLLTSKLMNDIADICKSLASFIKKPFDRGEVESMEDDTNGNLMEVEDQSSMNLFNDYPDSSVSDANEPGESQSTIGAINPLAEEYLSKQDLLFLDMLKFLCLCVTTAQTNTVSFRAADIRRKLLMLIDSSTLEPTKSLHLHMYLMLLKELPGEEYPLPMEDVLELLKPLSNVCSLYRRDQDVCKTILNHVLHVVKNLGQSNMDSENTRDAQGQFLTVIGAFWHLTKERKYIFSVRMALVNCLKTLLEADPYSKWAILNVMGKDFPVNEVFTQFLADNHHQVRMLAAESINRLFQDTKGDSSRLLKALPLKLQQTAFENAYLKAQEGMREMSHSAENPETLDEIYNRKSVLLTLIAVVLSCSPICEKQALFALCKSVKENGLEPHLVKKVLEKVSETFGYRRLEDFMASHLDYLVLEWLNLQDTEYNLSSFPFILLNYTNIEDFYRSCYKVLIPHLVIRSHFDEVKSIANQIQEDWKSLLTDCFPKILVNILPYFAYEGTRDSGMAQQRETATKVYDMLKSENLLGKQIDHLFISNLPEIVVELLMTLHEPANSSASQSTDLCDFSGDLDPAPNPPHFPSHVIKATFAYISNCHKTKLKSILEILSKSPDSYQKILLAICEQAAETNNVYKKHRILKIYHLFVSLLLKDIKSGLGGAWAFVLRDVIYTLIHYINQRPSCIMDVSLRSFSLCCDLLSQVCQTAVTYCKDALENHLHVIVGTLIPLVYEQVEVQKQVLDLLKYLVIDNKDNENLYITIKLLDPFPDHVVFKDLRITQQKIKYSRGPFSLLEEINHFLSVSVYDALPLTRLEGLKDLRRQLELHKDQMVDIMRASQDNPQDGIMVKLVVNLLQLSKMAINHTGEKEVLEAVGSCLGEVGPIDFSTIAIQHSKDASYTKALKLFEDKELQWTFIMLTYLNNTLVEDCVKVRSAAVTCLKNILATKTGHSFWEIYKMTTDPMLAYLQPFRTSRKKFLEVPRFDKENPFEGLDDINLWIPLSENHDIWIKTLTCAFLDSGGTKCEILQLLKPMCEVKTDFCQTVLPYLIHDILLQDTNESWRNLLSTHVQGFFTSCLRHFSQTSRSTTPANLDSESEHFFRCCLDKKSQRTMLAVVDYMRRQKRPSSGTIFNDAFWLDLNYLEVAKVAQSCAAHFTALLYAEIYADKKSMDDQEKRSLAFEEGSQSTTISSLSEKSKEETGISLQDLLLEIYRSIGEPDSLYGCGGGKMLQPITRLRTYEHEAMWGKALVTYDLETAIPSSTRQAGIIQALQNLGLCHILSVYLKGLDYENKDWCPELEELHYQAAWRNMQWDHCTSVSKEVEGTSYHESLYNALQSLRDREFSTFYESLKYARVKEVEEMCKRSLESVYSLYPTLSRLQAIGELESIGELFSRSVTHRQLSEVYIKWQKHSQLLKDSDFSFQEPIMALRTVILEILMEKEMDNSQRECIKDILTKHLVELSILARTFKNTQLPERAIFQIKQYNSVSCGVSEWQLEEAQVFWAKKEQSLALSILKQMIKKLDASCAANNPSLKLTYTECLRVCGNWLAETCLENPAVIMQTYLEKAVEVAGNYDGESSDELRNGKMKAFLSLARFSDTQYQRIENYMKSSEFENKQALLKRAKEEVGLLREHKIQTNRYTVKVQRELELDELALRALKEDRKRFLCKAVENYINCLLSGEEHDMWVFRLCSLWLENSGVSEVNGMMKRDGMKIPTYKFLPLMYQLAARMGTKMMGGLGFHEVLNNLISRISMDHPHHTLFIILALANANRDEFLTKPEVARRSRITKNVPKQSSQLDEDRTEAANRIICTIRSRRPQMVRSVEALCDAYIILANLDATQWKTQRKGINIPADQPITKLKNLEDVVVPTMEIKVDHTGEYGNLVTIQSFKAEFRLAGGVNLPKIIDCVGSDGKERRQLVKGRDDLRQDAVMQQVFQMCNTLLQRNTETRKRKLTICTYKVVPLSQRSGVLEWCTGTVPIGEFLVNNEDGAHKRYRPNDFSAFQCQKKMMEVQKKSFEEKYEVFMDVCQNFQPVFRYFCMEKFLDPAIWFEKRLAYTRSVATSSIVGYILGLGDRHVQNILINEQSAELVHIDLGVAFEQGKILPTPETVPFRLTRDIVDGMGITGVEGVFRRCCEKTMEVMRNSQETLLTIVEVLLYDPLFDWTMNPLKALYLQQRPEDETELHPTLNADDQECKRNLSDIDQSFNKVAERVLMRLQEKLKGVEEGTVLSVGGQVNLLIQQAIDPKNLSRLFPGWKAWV
# protocol.description: ATM inhibition test (phosphorylation of Chk2 generated by ionizing radiation, AlphaScreen SureFire)
# Assay type: cell-based
# conditions.used: phosphorylated Chk2 in NCI-H460 cells, ionizing radiation 8Gy, 1 hour after test compound treatment; read-out: ATM inhibitory activity
pIC50: −log10 of the molar value.

// below: answered compounds
| compound | pIC50 |
| --- | --- |
| O=c1cc(N2CCOCC2)cc(-c2cccc3c2Oc2ccc(NC4CN(CCc5ccccc5)C4)cc2C3)[nH]1 | 6.30 to 7.00 |
| Cc1ccc(C(Nc2ccc3c(c2)Sc2cccc(-c4cc(N5CCOCC5)cc(=O)[nH]4)c2S3)C2CC2)nc1 (stereo not drawn) | > 7.00 |
| O=c1cc(N2CCOCC2)cc(-c2cccc3c2Sc2ccc(NC4CCCCC4N4CCOCC4)cc2S3)[nH]1 (stereo not drawn) | 6.30 to 7.00 |

Please look at the items below and tell me pIC50 for each one, in order.
1. Cc1cnc(C(CCN(C)C)Nc2ccc3c(c2)Sc2cccc(-c4cc(=O)cc(N5CCOCC5)o4)c2O3)cn1 (single isomer, unassigned)
2. CCOCC(Nc1ccc2c(c1)Sc1cccc(-c3cc(N4CCOCC4)cc(=O)[nH]3)c1S2)c1ccc(C)cn1 (stereo not drawn)
3. O=c1cc(N2CCOCC2)cc(-c2cccc3c2Oc2ccc(NC4CCN(CC5CCCCC5)CC4)cc2C3)[nH]1

> 7.00
6.30 to 7.00
6.30 to 7.00

---

# tested.target: ATM (Homo sapiens)
# Construct: detecting phosphorylation of Chk2 in a human non-small cell lung cancer cell line NCI-H460 (ATCC company); host or cells: NCI-H460 human non-small cell lung cancer cells
# protocol.description: ATM inhibition test (phosphorylation of Chk2 generated by ionizing radiation, AlphaScreen SureFire)
# Format: cell-based
# conditions.used: phosphorylated Chk2 in NCI-H460 cells, ionizing radiation 8Gy, 1 hour after test compound treatment; read-out: ATM inhibitory activity
pIC50: −log10 of the molar value.
Kindly state pIC50 for each of the entries shown.

| compound | value.measured |
| --- | --- |
| O=c1cc(N2CCOCC2)cc(-c2cccc3c2Oc2ccc(NC4CCN(Cc5ccccn5)CC4)cc2C3)[nH]1 | 5.70 to 6.30 |

Please look at the items below and tell me pIC50 for each one, in order.
1. CC(C)CC(Nc1ccc2c(c1)Sc1cccc(-c3cc(N4CCOCC4)cc(=O)[nH]3)c1S2)[C@H](C)N (stereo partly drawn)
2. COc1ccc(CNc2ccc3c(c2)Sc2cccc(-c4cc(N5CCOCC5)cc(=O)[nH]4)c2S3)nc1
3. Cc1cccc(C(CO)Nc2ccc3c(c2)Cc2cccc(-c4cc(N5CCOCC5)cc(=O)[nH]4)c2O3)n1 (racemic) [Example 2-14-38]
4. CC(C)(C)OC(=O)N1CCC(C#N)(Nc2ccc3c(c2)Cc2cccc(-c4cc(N5CCOCC5)cc(=O)[nH]4)c2O3)CC1
5. CN1CCN(CCNc2ccc3c(c2)Sc2cccc(-c4cc(N5CCOCC5)cc(=O)[nH]4)c2S3)CC1
6. Cc1cnc(C(CCN(C)C)Nc2ccc3c(c2)Cc2cccc(-c4cc(N5CCOCC5)cc(=O)[nH]4)c2O3)cn1 (single isomer, unassigned)
7. Cc1ccc(C(Nc2ccc3c(c2)Sc2cccc(-c4cc(N5CCOCC5)cc(=O)[nH]4)c2S3)C2CCN(CCF)CC2)nc1 (stereo not drawn)
8. O=c1cc(N2CCOCC2)cc(-c2cccc3c2Oc2ccc(NC4CCN(Cc5ccccc5)CC4)cc2C3)[nH]1

1: 5.70 to 6.30; 2: 6.30 to 7.00; 3: 6.30 to 7.00; 4: 5.70 to 6.30; 5: > 7.00; 6: > 7.00; 7: > 7.00; 8: 6.30 to 7.00

Please look at the items below and tell me pIC50 for each one, in order.
1. COc1ccnc(CNc2ccc3c(c2)Sc2cccc(-c4cc(N5CCOCC5)cc(=O)[nH]4)c2S3)c1
2. Cc1ccc(CNc2ccc3c(c2)Cc2ccnc(-c4cc(N5CCOCC5)cc(=O)[nH]4)c2O3)cn1
3. CC(CNc1ccc2c(c1)Sc1cccc(-c3cc(N4CCOCC4)cc(=O)[nH]3)c1S2)CN1CCOCC1 (stereo not drawn)
4. COc1cncc(C(CO)Nc2ccc3c(c2)Sc2cccc(-c4cc(N5CCOCC5)cc(=O)[nH]4)c2S3)n1 (stereo not drawn)
5. Cc1ccc(C(CCCN(C)C)Nc2ccc3c(c2)Sc2cccc(-c4cc(N5CCOCC5)cc(=O)[nH]4)c2S3)nc1 (stereo not drawn) [Example 1-50-7]

1. > 7.00
2. 6.30 to 7.00
3. 6.30 to 7.00
4. 6.30 to 7.00
5. > 7.00

Please look at the items below and tell me pIC50 for each one, in order.
1. O=C1CCCN1c1cncc(CNc2ccc3c(c2)Cc2cccc(-c4cc(N5CCOCC5)cc(=O)[nH]4)c2O3)c1
2. Cc1ccc(C(Nc2ccc3c(c2)Sc2cccc(-c4cc(N5CCOCC5)cc(=O)[nH]4)c2S3)C2CN(CCO)CCO2)nc1 (racemic) [Example 1-57-2]
3. O=c1cc(N2CCOCC2)cc(-c2cccc3c2Oc2ccc(NCc4cncc(-n5cccn5)c4)cc2S3)[nH]1
4. O=c1cc(N2CCOCC2)cc(-c2cccc3c2Oc2ccc(NC4CCN(CC(F)(F)F)CC4)cc2C3)[nH]1
5. O=c1cc(N2CCOCC2)cc(-c2nccc3c2Oc2ccc(NCc4cccc(Cl)n4)cc2C3)[nH]1
6. O=c1cc(N2CCOCC2)cc(-c2cccc3c2Oc2ccc(NC4CCN(CCc5ccc(Cl)cc5)CC4)cc2C3)[nH]1

1: 6.30 to 7.00; 2: > 7.00; 3: > 7.00; 4: 6.30 to 7.00; 5: 6.30 to 7.00; 6: 5.70 to 6.30

Please look at the items below and tell me pIC50 for each one, in order.
1. CC(C)(C)OC(=O)N1CCCC(Nc2ccc3c(c2)Cc2cccc(-c4cc(N5CCOCC5)cc(=O)[nH]4)c2O3)CC1 (stereo not drawn)
2. Cc1ccc(C(Nc2ccc3c(c2)Sc2cccc(-c4cc(N5CCOCC5)cc(=O)[nH]4)c2S3)[C@@H]2CCCN2C)nc1 (single isomer, unassigned) [Example 1-56-2]
3. CNc1ncc(CN2CCC(Nc3ccc4c(c3)Cc3cccc(-c5cc(N6CCOCC6)cc(=O)[nH]5)c3O4)CC2)cn1
4. CC(CN1CCN(Cc2ccccn2)CC1)Nc1ccc2c(c1)Sc1cccc(-c3cc(N4CCOCC4)cc(=O)[nH]3)c1S2 (stereo not drawn)
5. Cc1cnc(CNc2ccc3c(c2)Cc2cccc(-c4cc(N5CCOCC5)cc(=O)[nH]4)c2O3)s1
6. O=c1cc(N2CCOCC2)cc(-c2cccc3c2Oc2ccc(NCc4cncc(OC(F)F)c4)cc2C3)[nH]1
7. Cc1cc(CNc2ccc3c(c2)Cc2ccnc(-c4cc(N5CCOCC5)cc(=O)[nH]4)c2O3)ccn1

["6.30 to 7.00", "6.30 to 7.00", "5.70 to 6.30", "6.30 to 7.00", "6.30 to 7.00", "6.30 to 7.00", "6.30 to 7.00"]
